pIC50: −log10 of the molar value.
Please find below pIC50 measurements for Cytochrome P450 2C9 (Homo sapiens, UniProt P11712), combined from several publications.

Some solved entries appear below for comparison.
molecule: Cc1nn([C@H](C)c2ccc(Cl)cc2Cl)c2nc(N3CC([C@H]4CCCN(CCO)C4)C3)cnc12
testTarget: Cytochrome P450 2C9 (Homo sapiens, UniProt P11712)
reportedValue: < 4.40
//
molecule: Cl.N[C@@H]1CCC=C(c2ccc(F)cc2)[C@H]1COc1cc(F)c(S(=O)(=O)Nc2nccs2)cc1Cl (racemic)
testTarget: Cytochrome P450 2C9 (Homo sapiens, UniProt P11712)
reportedValue: 7.00
//
molecule: Fc1cc(OC(F)(F)C(F)F)cc([C@@](Cc2ccccc2)(Nc2nc(C(F)(F)F)c(Br)s2)c2ccc(Cl)cn2)c1
testTarget: Cytochrome P450 2C9 (Homo sapiens, UniProt P11712)
reportedValue: < 4.40

Value of measured pIC50 for the entry CC(C)(C)Sc1c(CC(C)(C)C(=O)O)n(Cc2ccc(Cl)cc2)c2ccc(OCc3ccc4ccccc4n3)cc12 : 6.30

Value of measured pIC50 for the entry O=C(Nc1nc2cccc(-c3ccc(CN4CCS(=O)(=O)CC4)cc3)n2n1)C1CC1 : < 4.00

Value of measured pIC50 for the entry O=C(Nc1ccc(F)cc1)N1N=C(c2ccncc2)CC1c1ccc(F)cc1 (stereo not drawn) : 5.74

Value of measured pIC50 for the entry CC(C)n1nc(-c2ccc(OCCCN3CCC[C@H]3C)cc2)c2sccc2c1=O : < 4.52

Value of measured pIC50 for the entry O=C1CC(c2c[nH]c3ccc(F)cc23)C(=O)N1 (stereo not drawn) : < 4.00
